Values compiled from patent US20100068215A1.

# tested.system: T1, Activin A (UniProt P08476 311-426)
# T1 sequence (looked up): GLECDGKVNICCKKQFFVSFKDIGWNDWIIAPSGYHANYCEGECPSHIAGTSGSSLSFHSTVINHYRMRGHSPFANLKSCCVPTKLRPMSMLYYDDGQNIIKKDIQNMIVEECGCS
# test.protocol: Biacore; ActRIIB-Fc captured by anti-hFc antibody, ligand injected
assay.metric: pKd
# pKd = -log10(concentration in molar units)

// below: answered binders
ActRIIB(20-134)-hFc (Fc fusion) GRGEAETRECIYYNANWELERTNQSGLERCEGEQDKRLHCYASWRNSSGTIELVKKGCWLDDFNCYDRQECVATEENPQVYFCCCEGNFCNERFTHLPEAGGPEVTYEPPPTAPTGGGTHTCPPCPAPELLGGPSVFLFPPKPKDTLMISRTPEVTCVVVDVSHEDPEVKFNWYVDGVEVHNAKTKPREEQYNSTYRVVSVLTVLHQDWLNGKEYKCKVSNKALPVPIEKTISKAKGQPREPQVYTLPPSREEMTKNQVSLTCLVKGFYPSDIAVEWESNGQPENNYKTTPPVLDSDGSFFLYSKLTVDKSRWQQGNVFSCSVMHEALHNHYTQKSLSLSPGK ... 10.57
ActRIIB(R64K 20-129)-hFc (Fc fusion, not shown: human Fc domain (hFc)) GRGEAETRECIYYNANWELERTNQSGLERCEGEQDKRLHCYASWKNSSGTIELVKKGCWLDDFNCYDRQECVATEENPQVYFCCCEGNFCNERFTHLPEAGGPEVTYEPPGGG ... 10.08
ActRIIB(A24N 20-134)-hFc (Fc fusion, also called the A24N variant; not shown: human Fc domain (hFc)) GRGENETRECIYYNANWELERTNQSGLERCEGEQDKRLHCYASWRNSSGTIELVKKGCWLDDFNCYDRQECVATEENPQVYFCCCEGNFCNERFTHLPEAGGPEVTYEPPPTAPTGGG ... 9.98
ActRIIB(R64K 20-134)-hFc (Fc fusion, not shown: human Fc domain (hFc)) GRGEAETRECIYYNANWELERTNQSGLERCEGEQDKRLHCYASWKNSSGTIELVKKGCWLDDFNCYDRQECVATEENPQVYFCCCEGNFCNERFTHLPEAGGPEVTYEPPPTAPTGGG ... 10.32

Per the record, ActRIIB(P129S, P130R 20-134)-hFc (Fc fusion, kept as two molecules; not shown: human Fc domain (hFc)) GRGEAETRECIYYNANWELERTNQSGLERCEGEQDKRLHCYASWRNSSGTIELVKKGCWLDDFNCYDRQECVATEENPQVYFCCCEGNFCNERFTHLPEAGGPEVTYEPSRTAPTGGG has pKd of 10.08
